Molecular target: T1, Biotin Y46,48,51(SO3) PSGL-1(42-62) peptide (human, sulfotyrosine at Y46, Y48 and Y51; C-terminal Lys-biotin)
T1 construct: also called fully sulfated N-terminal PSGL-1 peptide
T1 peptide: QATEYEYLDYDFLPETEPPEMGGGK
Assay: ELISA, immobilized biotin peptide
Test readout: A450nm, 20 nM mAb (A450nm)
Numbers only, in A450nm.

Below are worked cases with known answers.
05H03 (antibody, IgG4, V domains shown) VH: QVQLQQSGGGLVQPGGSLTLSCVGSGFDFRSYAMSWVRQAPGKGLEWVSGINNSGSKTYYADFVKGRFSVSRDNSKNIVWLRMRSLRAEDTAVYYCARRTFGPPHAWGQGTMVTVSS VL: DIVMTQSPLSLSVTPGEPASISCRSSQSLLHSNGYKYLDWYLQKPGQSPQLLIYMGSNRASGVPDRFSGSGSGTDFTLKISRVEAEDVGVYYCMQGLQSPLTFGGGTKVEIE | 2.77
08C07 (antibody, IgG4, V domains shown) VH: QMQLVQSGAEVKKPGSSVKVSCKASGGTFSNYGMIWVRQAPRQGLEWMGRIIPFLDKPDYSEKFQDRITFTADKSTSTVYMELRGLRSDDTAVYYCAKWTSTLQGITTGQTWGQGTLVTVSS VL: QPVLTQPPSASGTPGQRVTISCSGSSSNIGGSYMYWYQQFPGTAPKLLIYRNNQRPSGVPDRFSGSKSGTSASLAISGLRSEDEADYYCAAWDVSLSGWVFGGGTKLTVL | 2.6
03E05 (antibody, IgG4, V domains shown) VH: EVKLLESGGDLAQTGGSLRLSCVASGFTFSSYPMSWVRQAPGKGLEWVSAIRRSGATQYADSVKGRFTISRDNSKNTVYLQMNSLRVEDTAVYYCAKGTYDLGQGTLVTVSS VL: DIVMTQTPLSLPVTLGQPASISCRSSQSLVYSDGNTYLNWFHQRPGQSPRRLIYKVSNRDSGVPDRFSGSGSDTEFTLKISRVEAEDVGVYYCMQATHWPLTFGGGTKVEIK | 2.61
07E07 (antibody, IgG4, V domains shown) VH: QVQLQQSGAEVKKPGASVKVSCKASGYTFTSYYMHWVRQAPGQGLEWMGIINTSSGSTKYAQRFQDRVTVTRDTSTTTVYMELNSLRSEDTAVYYCARGGRAYSGSFDNWGQGTLVTVSS VL: DVVMTQSPLSLPVTLGQPASISCRSSQSLVHRDGNTYFNWFQQRPGQSPRRLIYKVSNRDSGVPDRFSGSGSGTDFTLKISRVEAEDVGVYYCMQATHWPRTFGQGTKVEIK | 2.77

The record that follows has no A450nm, 20 nM mAb shown yet.
Per the records, this binder ( 05E08 (antibody, IgG4, V domains shown) VH: EVQLVQSGGGVVQPGRSLRLSCAASGFTFSTYAMHWVRQAPGKGLEWVAVISYDGSNKYYADSVKGRFTISRDNSRNTLFLQMNSLRDEDTAVYYCAKRGTMIRGERSLDFWGQGTLVTVSS VL: AIQMTQSPSFLSASVGDRVTITCRASQGINSWLAWYQQKPGTAPNLLIHAASTLQSGVPSRFSGSRSGTEFTLTISSLQPEDFATYYCQQLQSYPLTFGQGTRLEIK ) has A450nm, 20 nM mAb equal to 2.57
